Settings: in n-pentanol, 288.15 K
MEASURED_METRIC: solubility (mole fraction)
Answer with the value's number alone.

Value lookup for solubility (mole fraction); key = `c1ccc2[nH]cnc2c1`
0.105

---

Details: in acetone, 293.15 K
MEASURED_METRIC: solubility (mole fraction)

Look up solubility (mole fraction): `c1ccc2[nH]cnc2c1`
0.0256

---

Conditions: in isopropanol, 303.15 K
MEASURED_METRIC: solubility (mole fraction)
Give only the figure.

Which solubility (mole fraction) is reported for this compound? `c1ccc2[nH]cnc2c1`
0.0959

---

Settings: in n-butyl acetate, 293.15 K
MEASURED_METRIC: solubility (mole fraction)
Could you respond with only the numeric value?

Return reported solubility (mole fraction); argument: `c1ccc2[nH]cnc2c1`
0.00873

---

Conditions: in ethyl acetate, 293.15 K
MEASURED_METRIC: solubility (mole fraction)
// return a plain number; no unit text

Requested field: solubility (mole fraction). Item: `c1ccc2[nH]cnc2c1`
0.0108

---

Conditions: in acetone, 323.15 K
MEASURED_METRIC: solubility (mole fraction)
Please respond with just the number, no unit label.

Please look up its solubility (mole fraction): `c1ccc2[nH]cnc2c1`
0.0576

---

Details: in n-butyl acetate, 313.15 K
MEASURED_METRIC: solubility (mole fraction)
Form field (numeric): enter value without unit.

Entry `c1ccc2[nH]cnc2c1` : reported solubility (mole fraction) = ?
0.0166

---

Settings: in isobutyl acetate, 293.15 K
MEASURED_METRIC: solubility (mole fraction)
Form rule: numeric answer, no unit written next to it.

If you can, please state the reported solubility (mole fraction) value of `c1ccc2[nH]cnc2c1` .
0.00944

---

Settings: in n-butyl acetate, 318.15 K
MEASURED_METRIC: solubility (mole fraction)

Suppose we examine the molecule `c1ccc2[nH]cnc2c1` ; what solubility (mole fraction) value has been reported?
0.0182

---

Details: in acetonitrile, 288.15 K
MEASURED_METRIC: solubility (mole fraction)
// response body must contain only the number

Given the entry `c1ccc2[nH]cnc2c1` , report its measured solubility (mole fraction).
0.0063

---

Settings: in acetonitrile, 293.15 K
MEASURED_METRIC: solubility (mole fraction)
Simply state the number, no unit and no words.

Look up solubility (mole fraction): `c1ccc2[nH]cnc2c1`
0.00754

---

Details: in 1,4-dioxane, 298.15 K
MEASURED_METRIC: solubility (mole fraction)
Note: the reply should be a number with no unit written.

I am curious: what solubility (mole fraction) value has been reported for `c1ccc2[nH]cnc2c1` ?
0.0215

---

Conditions: in isobutanol, 298.15 K
MEASURED_METRIC: solubility (mole fraction)
When you answer, write just the number.

# lookup: solubility (mole fraction) of `c1ccc2[nH]cnc2c1`
0.103

---

Details: in n-butanol, 303.15 K
MEASURED_METRIC: solubility (mole fraction)
# answer = number (no unit)

Record request: solubility (mole fraction) value, item `c1ccc2[nH]cnc2c1`
0.121

---

Conditions: in ethyl acetate, 308.15 K
MEASURED_METRIC: solubility (mole fraction)
Respond using a number only.

Which solubility (mole fraction) value is on record for `c1ccc2[nH]cnc2c1` ?
0.0167

---

Details: in acetone, 308.15 K
MEASURED_METRIC: solubility (mole fraction)
I only need the number, thanks.

Query: solubility (mole fraction); subject: `c1ccc2[nH]cnc2c1`
0.0398
